assay: Cytotoxicity against mouse RAW264.7 cells assessed as reduction in cell viability after 48 hrs by MTT assay; assay type: toxicity, cell-based
testReadout: IC50 at 48 h (µM)

                                 smilesdata  modifiersign  observedresult
0  COc1cc(NC(=O)c2ccc(Br)cc2)ccc1S(N)(=O)=O             =            48.3
1       COc1cc(NC(=O)c2ccco2)ccc1S(N)(=O)=O             >             100
2  COc1cc(NC(=O)c2cccc(Cl)c2)ccc1S(N)(=O)=O             =            91.5
3  COc1cc(NC(=O)c2cc(Cl)cc(Cl)c2)ccc1S(N)(=O)=O             =              81
4   COc1cc(NC(=O)c2cccc(C)c2)ccc1S(N)(=O)=O             >             100
5  COc1cc(NC(=O)c2ccc(SC)cc2)ccc1S(N)(=O)=O             =            19.6

====

assay: Cytotoxicity against HEK293 cells assessed as reduction in cell viability after 48 hrs by MTT assay; format: toxicity, cell-based; settings: human
Let's look at some compounds and their measured IC50 at 48 h.
testReadout: IC50 at 48 h (µM)

>>> print(df.to_string())
                                 smilesdata  modifiersign  observedresult
0  COc1cc(NC(=O)c2cc(C(F)(F)F)cc(C(F)(F)F)c2)ccc1S(N)(=O)=O             =            74.3
1   COc1cc(NC(=O)c2cccc(I)c2)ccc1S(N)(=O)=O             =            48.9
2  COc1cc(NC(=O)COCC(=O)Nc2ccc(S(N)(=O)=O)c(OC)c2)ccc1S(N)(=O)=O             =              98
3  COc1cc(NC(=O)c2cc(OC)c(OC)c(OC)c2)ccc1S(N)(=O)=O             =            32.9
4  COc1cccc(C(=O)Nc2ccc(S(N)(=O)=O)c(OC)c2)c1             >             100
5  COc1cc(NC(=O)c2cccc(C(F)(F)F)c2)ccc1S(N)(=O)=O             >             100
6  COc1cc(NC(=O)c2ccc(N(C)C)cc2)ccc1S(N)(=O)=O             >             100
7  COc1cc(NC(=O)c2cccc(Cl)c2)ccc1S(N)(=O)=O             >             100

====

Let's look at some compounds and their measured selectivity ratio.
test: Selectivity index, ratio of IC50 for mouse RAW264.7 cells to IC50 for antitrypanosomal activity against bloodstream Trypanosoma brucei Lister 427; type: toxicity; details: read-out: Ratio IC50
testReadout: selectivity ratio

In [3]: df
Out[3]:
                                 smilesdata        testreadout  observedresult
0  COc1cc(NC(=O)c2cccc(C#N)c2)ccc1S(N)(=O)=O  selectivity ratio            1.68
1  COc1cc(NC(=O)c2ccc(C(F)(F)F)cc2C(F)(F)F)ccc1S(N)(=O)=O  selectivity ratio            0.73
2  COc1cc(NC(=O)c2cc(OC)c(OC)c(OC)c2)ccc1S(N)(=O)=O  selectivity ratio            0.38
3  COc1cc(NC(=O)c2ccc(Cl)c([N+](=O)[O-])c2)ccc1S(N)(=O)=O  selectivity ratio            4.77
4  COc1cc(NC(=O)c2ccc(Cl)c(Cl)c2)ccc1S(N)(=O)=O  selectivity ratio            0.62

All figures here come from ChEMBL document CHEMBL5550157.
